All figures here come from ChEMBL document CHEMBL1122408.

subject.of.test: Adrenergic receptor alpha-2 (Rattus norvegicus) (UniProt P22086+P19328+P22909)
Kindly state AD50 for each of the entries shown.

NC(=O)c1cccnc1N1CCNCC1    > 3 mg/kg
Clc1cnc(N2CCNCC2)c(Cl)c1    > 3 mg/kg
Clc1cccnc1N1CCN(Cc2ccccc2)CC1    > 3 mg/kg
CN1CCN2c3ccccc3Cc3ccccc3C2C1 (stereo not given)    > 10 mg/kg

Problem: Notebook: pull reported AD50 for Adrenergic receptor alpha-2 (Rattus norvegicus) (UniProt P22086+P19328+P22909), entry `Nc1cccnc1N1CCNCC1`
Solution: > 3 mg/kg
